Below, each entry is listed with its recorded JAK3/AurB Fold Selectivity.
targetSystem: Aurora B (Homo sapiens)
Construct: cell lysates from Jurkat cells (ATCC TIB-152) used; endogenous in cells; host or cells: Jurkat cells (ATCC TIB-152), treated with pervanadate
Sequence (Q96GD4 whole entry): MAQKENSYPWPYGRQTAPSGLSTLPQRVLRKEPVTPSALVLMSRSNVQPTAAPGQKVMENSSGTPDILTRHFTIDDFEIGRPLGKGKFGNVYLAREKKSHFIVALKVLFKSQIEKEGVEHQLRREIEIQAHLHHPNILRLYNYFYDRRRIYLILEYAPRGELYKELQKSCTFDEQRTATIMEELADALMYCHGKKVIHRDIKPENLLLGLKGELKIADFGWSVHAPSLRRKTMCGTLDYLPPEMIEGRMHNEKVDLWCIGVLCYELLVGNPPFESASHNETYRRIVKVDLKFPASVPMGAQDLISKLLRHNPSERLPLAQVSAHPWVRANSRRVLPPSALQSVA
experimentalProtocol: Kinobeads assay, Aurora B
Assay type: binding
Description: The compounds of the present invention as described in the previous examples were tested in a Kinobeads™ assay as described for ZAP-70 (WO-A 2007/137867). […] Bound proteins were then eluted and the presence of JAK2 and JAK3 was detected and quantified using specific antibodies in a dot blot procedure and the Odyssey infrared detection system. Dose response curves for individual kinases were generated and IC50 values calculated. […]

compoundString	JAK3/AurB Fold Selectivity
CN(C)CCCn1cc(Nc2ncc3cnn(Cc4c(F)c(F)cc(N5CCOCC5=O)c4F)c3n2)cn1	10-50 Fold
CN(C)CCCn1cc(Nc2ncc3cnn(Cc4c(F)ccc(N5CCOCC5=O)c4F)c3n2)cn1	3-10 Fold
CCn1cc(-c2cccc(Cn3ncc4cnc(Nc5cnn(C)c5)nc43)c2)cn1	>50 Fold
OCCn1cc(Nc2ncc3cnn(Cc4cccc(N5CCNCC5)c4)c3n2)cn1	10-50 Fold
